# Target or system: Bug69 (Bordetella pertussis, UniProt Q7VUA0)
# Construct: gene BP3219; mature periplasmic domain, signal peptide omitted, pET28c NcoI/XhoI, C-terminal His tag kept; E. coli BL21(DE3); denatured and renatured to remove endogenous ligands
# Sequence (Q7VUA0 32-332): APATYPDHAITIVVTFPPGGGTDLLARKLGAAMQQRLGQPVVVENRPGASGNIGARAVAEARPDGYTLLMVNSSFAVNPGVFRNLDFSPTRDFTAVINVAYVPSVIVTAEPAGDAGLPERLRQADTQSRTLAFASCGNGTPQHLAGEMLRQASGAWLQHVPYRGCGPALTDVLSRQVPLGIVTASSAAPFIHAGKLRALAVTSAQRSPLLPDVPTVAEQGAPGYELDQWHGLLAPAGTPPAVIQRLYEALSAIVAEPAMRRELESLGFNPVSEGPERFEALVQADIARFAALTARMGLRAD
# Method: intrinsic tryptophan fluorescence quenching titration
# Type: binding
# Details: 20 °C; 0.1 μM protein; excitation 295 nm, fit at 328 nm
pKd: −log10 of the molar value.
Quantity measured: pKd

* O=C(O)c1cccnc1C(=O)O [quinolinate] | 7.15
